- Method Description: Highest frequency of moderate liver toxicity observed during clinical trials, expressed as a percentage. [column '% BIOL' in source]
- Experimental Context: human
Would you mind telling me the reported Hepatotoxicity (moderate) of each entry?
One number for each entry, in %.

Give Hepatotoxicity (moderate) for each of the items listed below.
1. Cc1nc2n(c(=O)c1CCN1CCC(c3noc4cc(F)ccc34)CC1)CCCC2
2. COc1cc(NS(C)(=O)=O)ccc1Nc1c2ccccc2nc2ccccc12

6
41

Give Hepatotoxicity (moderate) for each of the items listed below.
1. CNC(=O)[C@@H](NC(=O)[C@H](CC(C)C)[C@H](O)C(=O)NO)C(C)(C)C
2. COc1ccc2c(C(=S)N(C)CC(=O)O)cccc2c1C(F)(F)F
3. CN1C(=O)CC(=O)N(c2ccccc2)c2cc(Cl)ccc21

0
15.4
2.1

Give Hepatotoxicity (moderate) for each of the items listed below.
1. CCN1CCN(C(=O)N[C@@H](C(=O)N[C@]2(OC)C(=O)N3C(C(=O)O)=C(CSc4nnnn4C)CS[C@@H]32)[C@H](C)O)C(=O)C1=O
2. Cc1c(C)c2ccc(OCCCN3CCN(Cc4ccc(Cl)cc4)CC3)cc2oc1=O
3. CN(Cc1cnc2nc(N)nc(N)c2n1)c1ccc(C(=O)N[C@@H](CCC(=O)O)C(=O)O)cc1 [METHOTREXATE]

[6.4, 2, 88]
